assay: Selectivity index, ratio of CC50 for human mock-infected MT4 cells to EC50 for HIV1 3B harboring reverse transcriptase F227L/V106A double mutant infected in human MT4 cells; assay type: toxicity, cell-based; conditions: MT4 cells (mock-infected for CC50, HIV-1 infected for EC50)
outcome measure: selectivity ratio
Could you keep your reply to the number by itself?

molecule | number
Cc1cc(C)c(Oc2nc(NC3CCN(Cc4ccc(C(N)=O)cc4)CC3)nc3ccsc23)c(C)c1 | 54
Cc1cc(C)c(Oc2nc(NC3CCN(Cc4ccc(F)cc4F)CC3)nc3ccsc23)c(C)c1 | 2

Enquiry: Which selectivity ratio value is on record for "Cc1cc(C#N)cc(C)c1Oc1nc(NC2CCN(Cc3ccncc3)CC2)nc2ccsc12" ?
Return: 159

Enquiry: Find the recorded selectivity ratio belonging to "CNS(=O)(=O)c1ccc(CN2CCC(Nc3nc(Oc4c(C)cc(C#N)cc4C)c4sccc4n3)CC2)cc1" and report it.
Return: 1090
